test-name: Measurement of the approximate solubility at ambient temperature
Assay type: physicochemical
test-context: organic solvent or mixture, thermodynamic from solid, EtOAc, 23° C.
measurement-name: solubility

INPUT: Tell me the measured solubility of Cc1cc(OC[P@@]2(=O)OCC[C@@H](c3cccc(Cl)c3)O2)cc(C)c1Cc1ccc(O)c(C(C)C)c1 , please.
OUTPUT: ~772 mg/mL

====

test-name: Measurement of the approximate solubility at ambient temperature
Type: physicochemical
test-context: organic solvent or mixture, thermodynamic from solid, acetone/n-heptane 75:25 v/v, 23° C.
Experimental: In some embodiments, to determine the approximate solubility at room temperature, solvent was added in steps to the solid material. After every addition, the sample was well stirred. […] In other embodiments, aliquots of the test solvent were added to an accurately weighed amount of the compound of Formula I in small increments (usually 100-1000 μL), with sonication until complete dissolution was obtained, if possible. Dissolution was determined visually. […]
measurement-name: solubility

INPUT: Tell me the measured solubility of Cc1cc(OC[P@@]2(=O)OCC[C@@H](c3cccc(Cl)c3)O2)cc(C)c1Cc1ccc(O)c(C(C)C)c1 , please.
OUTPUT: > 200 mg/mL

====

test-name: Measurement of the approximate solubility at ambient temperature
Format: physicochemical
test-context: organic solvent or mixture, thermodynamic from solid, methyl nonafluorobutyl ether, 23° C.
Procedure: In some embodiments, to determine the approximate solubility at room temperature, solvent was added in steps to the solid material. After every addition, the sample was well stirred. […] In other embodiments, aliquots of the test solvent were added to an accurately weighed amount of the compound of Formula I in small increments (usually 100-1000 μL), with sonication until complete dissolution was obtained, if possible. Dissolution was determined visually. […]
measurement-name: solubility

INPUT: Tell me the measured solubility of Cc1cc(OC[P@@]2(=O)OCC[C@@H](c3cccc(Cl)c3)O2)cc(C)c1Cc1ccc(O)c(C(C)C)c1 [Starting Material A] , please.
OUTPUT: < 39 mg/mL

====

test-name: Measurement of the approximate solubility at ambient temperature
Type: physicochemical
test-context: organic solvent or mixture, thermodynamic from solid, tetrahydrofuran (THF)/n-heptane 75:25 v/v, 23° C.
measurement-name: solubility

INPUT: Tell me the measured solubility of Cc1cc(OC[P@@]2(=O)OCC[C@@H](c3cccc(Cl)c3)O2)cc(C)c1Cc1ccc(O)c(C(C)C)c1 [Starting Material A] , please.
OUTPUT: > 200 mg/mL

====

test-name: Measurement of the approximate solubility at ambient temperature
Assay type: physicochemical
test-context: organic solvent or mixture, thermodynamic from solid, acetonitrile/water 75:25 v/v, 23° C.
measurement-name: solubility

INPUT: Tell me the measured solubility of Cc1cc(OC[P@@]2(=O)OCC[C@@H](c3cccc(Cl)c3)O2)cc(C)c1Cc1ccc(O)c(C(C)C)c1 , please.
OUTPUT: > 200 mg/mL

====

test-name: Measurement of the approximate solubility at ambient temperature
Format: physicochemical
test-context: methyl ethyl ketone, organic solvent or mixture, thermodynamic from solid, methy ethyl ketone, 23° C.
measurement-name: solubility

INPUT: Tell me the measured solubility of Cc1cc(OC[P@@]2(=O)OCC[C@@H](c3cccc(Cl)c3)O2)cc(C)c1Cc1ccc(O)c(C(C)C)c1 , please.
OUTPUT: > 480 mg/mL

====

test-name: Measurement of the approximate solubility at ambient temperature
Type: physicochemical
test-context: organic solvent or mixture, thermodynamic from solid, EtOAc/n-heptane 75:25 v/v, 23° C.
measurement-name: solubility

INPUT: Tell me the measured solubility of Cc1cc(OC[P@@]2(=O)OCC[C@@H](c3cccc(Cl)c3)O2)cc(C)c1Cc1ccc(O)c(C(C)C)c1 , please.
OUTPUT: > 200 mg/mL
